- test-target: BRAF G469A (Homo sapiens, UniProt P15056, G469A)
- Construct: Horizon Discovery (HCT-116 BRAF−/− cells); host or cells: HCT-116 BRAF−/− cells, clone 34, lentiviral transduction
- Sequence (P15056 whole entry G469A): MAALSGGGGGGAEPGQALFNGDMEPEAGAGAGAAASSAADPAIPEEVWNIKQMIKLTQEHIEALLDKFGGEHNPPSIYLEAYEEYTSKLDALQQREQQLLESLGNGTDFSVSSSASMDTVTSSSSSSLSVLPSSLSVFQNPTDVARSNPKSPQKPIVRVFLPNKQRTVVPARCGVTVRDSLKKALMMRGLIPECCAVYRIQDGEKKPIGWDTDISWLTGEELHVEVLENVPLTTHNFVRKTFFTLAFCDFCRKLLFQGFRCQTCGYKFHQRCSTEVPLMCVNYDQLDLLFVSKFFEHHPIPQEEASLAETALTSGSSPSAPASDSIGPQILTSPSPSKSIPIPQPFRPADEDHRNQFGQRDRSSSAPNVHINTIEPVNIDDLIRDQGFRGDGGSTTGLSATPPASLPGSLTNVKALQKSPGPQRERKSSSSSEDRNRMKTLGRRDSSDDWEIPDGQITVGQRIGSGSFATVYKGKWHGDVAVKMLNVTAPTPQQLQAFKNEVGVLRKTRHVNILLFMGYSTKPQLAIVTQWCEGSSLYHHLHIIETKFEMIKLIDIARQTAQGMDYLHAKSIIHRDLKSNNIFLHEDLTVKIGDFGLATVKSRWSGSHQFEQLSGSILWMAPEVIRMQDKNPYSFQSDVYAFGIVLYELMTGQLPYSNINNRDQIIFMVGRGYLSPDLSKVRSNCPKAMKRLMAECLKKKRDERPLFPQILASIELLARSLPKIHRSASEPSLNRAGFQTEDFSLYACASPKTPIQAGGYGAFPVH
- test-method-notes: BRAF HiBiT degradation assay, C-terminal HiBiT-tagged BRAF G469A overexpressed in HCT-116 BRAF−/− cells (clone 34), Nano-Glo HiBiT Lytic assay
- Format: cell-based
- assay-context: BRAF G469A (Class 2), HCT-116 BRAF−/− cells; observed Dmax relative to DMSO control
reported-endpoint: Dmax

response.value for C[C@@H]1CN(c2ccc(-n3cc(-c4cc(Cl)cc(NS(=O)(=O)N5CC[C@@H](F)C5)c4F)c(-c4ccncc4)n3)nc2)CCN1CC1CCN(c2ccc(C3CCC(=O)NC3=O)cn2)CC1 (mixture of isomers) (field: Dmax) = > 70%

Entry `C[C@@H]1CN(c2ccc(-n3cc(-c4cc(Cl)cc(NS(=O)(=O)N5CC[C@@H](F)C5)c4F)c(-c4ccncc4)n3)nc2)CCN1CC1CCN(c2ccc(N3CCC(=O)NC3=O)cc2)CC1` — recorded Dmax = 30 to 70%

Measured Dmax of CCN(C)S(=O)(=O)Nc1cc(Cl)cc(-c2cn(-c3ccc(N4CCN(CC5CCN(c6ccc(C7CCC(=O)NC7=O)cn6)CC5)CC4)cn3)nc2-c2ccncc2)c1F (racemic) : 30 to 70%

Entry under test: O=C1CCC(c2ccc(N3CCC(CN4CCN(c5ccc(-n6cc(-c7cc(Cl)cc(NS(=O)(=O)N8CCCC8)c7F)c(-c7ccncc7)n6)cc5)CC4)CC3)c(F)c2)C(=O)N1 (racemic) . Its Dmax was 30 to 70%

----------
- test-target: BRAF G466V (Homo sapiens, UniProt P15056, G466V)
- Construct: Horizon Discovery (HCT-116 BRAF−/− cells); host or cells: HCT-116 BRAF−/− cells, clone 8, lentiviral transduction
- Sequence (P15056 whole entry G466V): as the sequence (P15056 whole entry G469A) above, with G466V, A469G counted along it
- test-method-notes: BRAF HiBiT degradation assay, C-terminal HiBiT-tagged BRAF G466V overexpressed in HCT-116 BRAF−/− cells (clone 8), Nano-Glo HiBiT Lytic assay
- Format: cell-based
- assay-context: BRAF G466V (Class 3), HCT-116 BRAF−/− cells; DC50 at 50% degradation
reported-endpoint: DC50

Solved entries (count: 2):
| compound | result |
| --- | --- |
| O=C1CCC(c2ccc(N3CCC(CN4CCN(c5cc(F)c(-n6cc(-c7cc(Cl)cc(NS(=O)(=O)N8CCCC8)c7F)c(-c7ccncc7)n6)cc5F)CC4)CC3)nc2)C(=O)N1 (racemic) | < 0.01 µM |
| O=C1CCN(c2ccc(N3CCC(CN4CCN(c5ccc(-n6cc(-c7cc(Cl)cc(NS(=O)(=O)N8CC[C@@H](F)C8)c7F)c(-c7ccncc7)n6)c(F)c5)CC4)CC3)nc2)C(=O)N1 | < 0.01 µM |

Summary for this compound, `O=C1CCN(c2ccc(N3CCC(CN4CCN(c5ccc(-n6cc(-c7cc(F)cc(NS(=O)(=O)N8CCCC8)c7F)c(-c7ccncc7)n6)cc5)CC4)CC3)cc2)C(=O)N1` : DC50 is < 0.01 µM

// O=C1CCC(c2ccc(N3CCC(CN4CCN(c5ccc(-n6cc(-c7cc(Cl)cc(NS(=O)(=O)N8CC[C@@H](F)C8)c7F)c(-c7ccncc7)n6)cc5F)CC4)CC3)nc2)C(=O)N1 (mixture of isomers) : DC50 value = < 0.01 µM

For record `CCN(C)S(=O)(=O)Nc1cc(Cl)cc(-c2cn(-c3ccc(N4CCN(CC5CCN(c6ccc(N7CCC(=O)NC7=O)cn6)CC5)CC4)cn3)nc2-c2ccncc2)c1F` the listed DC50 is 0.01 to 0.05 µM

For record O=C1CCC(c2ccc(N3CCC(CN4CCCN(c5ccc(-n6cc(-c7cc(Cl)cc(NS(=O)(=O)N8CCCC8)c7F)c(-c7ccncc7)n6)c(F)c5)CC4)CC3)nc2)C(=O)N1 (racemic) the listed DC50 is > 0.5 µM

// DC50 lookup, compound = `C[C@@H]1CN(c2ccc(-n3cc(-c4cc(Cl)cc(NS(=O)(=O)N5CCCC5)c4F)c(-c4ccncc4)n3)cc2)CCN1CC1CCN(c2ccc(N3CCC(=O)NC3=O)cc2)CC1` , result: < 0.01 µM

Reported DC50 ( `CCCS(=O)(=O)Nc1cc(Cl)cc(-c2cn(-c3ccc(N4CCN(CC5CCN(c6ccc([C@H]7CCC(=O)NC7=O)cc6)CC5)[C@@H](C)C4)cc3)nc2-c2ccncc2)c1F` ) = < 0.01 µM

Lab note: measured DC50 of `CCN(C)S(=O)(=O)Nc1cc(Cl)cc(-c2cn(-c3ccc(N4CCN(CC5CCN(c6ccc([C@H]7CCC(=O)NC7=O)cc6)CC5)CC4)cc3)nc2-c2ccncc2)c1F` was < 0.01 µM

For reference, reported DC50 for `O=C1CC[C@H](c2ccc(N3CCC(CN4CCN(c5ccc(-n6cc(-c7cc(Cl)cc(NS(=O)(=O)C8CCCC8)c7F)c(-c7ccncc7)n6)cc5)CC4)CC3)nc2)C(=O)N1` stands at 0.01 to 0.05 µM

----------
Documented DC50 across a set of molecules
- test-target: BRAF G466V (Homo sapiens, UniProt P15056, G466V)
- Construct: Horizon Discovery (HCT-116 BRAF−/− cells); host or cells: HCT-116 BRAF−/− cells, clone 8, lentiviral transduction
- test-method-notes: BRAF HiBiT degradation assay, C-terminal HiBiT-tagged BRAF G466V overexpressed in HCT-116 BRAF−/− cells (clone 8), Nano-Glo HiBiT Lytic assay
- Assay type: cell-based
- assay-context: BRAF G466V (Class 3), HCT-116 BRAF−/− cells; DC50 at 50% degradation

| molecule | DC50 |
| --- | --- |
| CCN(C)S(=O)(=O)Nc1cc(F)cc(-c2cn(-c3ccc(N4CCN(CC5CCN(c6ccc([C@H]7CCC(=O)NC7=O)cc6)CC5)CC4)cc3)nc2-c2ccncc2)c1F | 0.01 to 0.05 µM |

Record O=C1CCC(c2ccc(N3CCC(CN4CCN(c5ccc(-n6cc(-c7cc(Cl)cc(NS(=O)(=O)N8CCCC8)c7F)c(-c7ccncc7)n6)cc5F)CC4)CC3)nc2)C(=O)N1 (racemic) ; system BRAF G466V (Homo sapiens, UniProt P15056, G466V); DC50 = < 0.01 µM

Bench note, BRAF G466V (Homo sapiens, UniProt P15056, G466V): entry `C[C@@H]1CN(c2ccc(-n3cc(-c4cc(Cl)cc(NS(=O)(=O)N5CCCC5)c4F)c(-c4ccncc4)n3)nc2)CCN1CC1CCN(c2ccc([C@H]3CCC(=O)NC3=O)cn2)CC1` , its DC50 = < 0.01 µM

# DC50 measured on BRAF G466V (Homo sapiens, UniProt P15056, G466V) for item `O=C1CC[C@H](c2ccc(N3CCC(CN4CCN(c5ccc(-n6cc(-c7cc(Cl)cc(NS(=O)(=O)N8CC[C@@H](F)C8)c7F)c(-c7ccncc7)n6)nc5)CC4)CC3)cc2)C(=O)N1` = < 0.01 µM

Reported DC50 (BRAF G466V (Homo sapiens, UniProt P15056, G466V)) for entry O=C1CCC(c2ccc(N3CCC(CN4CCN(c5ccc(-n6cc(-c7cc(F)cc(NS(=O)(=O)N8CC[C@@H](F)C8)c7F)c(-c7ccncc7)n6)nc5)CC4)CC3)nc2)C(=O)N1 (mixture of isomers) is < 0.01 µM

Summary: O=C1CCC(c2ccc(N3CCC(F)(CN4CCN(c5ccc(-n6cc(-c7cc(Cl)cc(NS(=O)(=O)N8CCCC8)c7F)c(-c7ccncc7)n6)cc5)CC4)CC3)cc2)C(=O)N1 (racemic) , BRAF G466V (Homo sapiens, UniProt P15056, G466V), DC50 = < 0.01 µM

----------
Listed molecules paired with reported Dmax
- test-target: BRAF V600E (Homo sapiens, UniProt P15056, V600E)
- Construct: endogenous C-terminal HiBiT fusion tag on BRAF V600E allele; endogenous in cells; host or cells: A375 clone 1F10 (CRISPR-Cas9 knock-in of the HiBiT tag; parental A375 from ATCC)
- Sequence (P15056 whole entry V600E, the tested form may be a part): as the sequence (P15056 whole entry G469A) above, with A469G, V600E counted along it
- test-method-notes: BRAF HiBiT degradation assay, C-terminal HiBiT-tagged BRAF V600E A375 cells (clone 1F10), Nano-Glo HiBiT Lytic assay
- Format: cell-based
- assay-context: A-375; A375 (BRAF V600E, Class 1); observed Dmax, % protein degraded relative to DMSO control
- Experimental: An A375 cell line expressing a homozygous V600E mutation was purchased from ATCC (Manassas, VA, USA). […] HiBiT signal was measured by a Nano-Glo HiBiT Lytic assay (Promega cat. no. N3050). […] Luminesce units (LU) were read on an EnVision plate reader 2105 (Perkin Elmer). Percent protein remaining and viability remaining per sample were calculated as follows: […]

| molecule | test-target | Dmax |
| --- | --- | --- |
| CCN(C)S(=O)(=O)Nc1cc(F)cc(-c2cn(-c3ccc(N4CCN(CC5CCN(c6ccc([C@H]7CCC(=O)NC7=O)cc6)CC5)CC4)cc3)nc2-c2ccncc2)c1F | BRAF V600E (Homo sapiens, UniProt P15056, V600E) | > 70% |
| O=C1CCN(c2ccc(N3CCC(CN4CCN(c5ccc(-n6cc(-c7cc(Cl)cc(NS(=O)(=O)N8CCCC8)c7F)c(-c7ccncc7)n6)cc5)CC4)CC3)cc2)C(=O)N1 | BRAF V600E (Homo sapiens, UniProt P15056, V600E) | > 70% |
| CCN(C)S(=O)(=O)Nc1cc(Cl)cc(-c2cn(-c3ccc(N4CCN(CC5CCN(c6ccc(N7CCC(=O)NC7=O)cc6)CC5)CC4)cc3)nc2-c2ccncc2)c1F | BRAF V600E (Homo sapiens, UniProt P15056, V600E) | > 70% |
| O=C1CC[C@H](c2ccc(N3CCC(CN4CCN(c5cnc(-n6cc(-c7cc(Cl)cc(NS(=O)(=O)N8CCCC8)c7F)c(-c7ccncc7)n6)nc5)CC4)CC3)cc2)C(=O)N1 | BRAF V600E (Homo sapiens, UniProt P15056, V600E) | > 70% |
| CCN(C)S(=O)(=O)Nc1cc(Cl)cc(-c2cn(-c3ccc(N4CCN(CC5CCN(c6ccc(N7CCC(=O)NC7=O)cc6)CC5)CC4)cn3)nc2-c2ccncc2)c1F | BRAF V600E (Homo sapiens, UniProt P15056, V600E) | > 70% |

Now for the molecule whose Dmax we want.
Value of Dmax reported for the molecule CCCS(=O)(=O)Nc1cccc(-c2cn(-c3ccc(N4CCC(CN5CCN(c6ccc(C7CCC(=O)NC7=O)cc6)CC5)CC4)cc3)nc2-c2ccncc2)c1F (racemic) is > 70%
